Tested on: UACC-62 melanoma
assay details: NCI tumour cell line growth inhibition, 48 h
measured metric: TGI (µM)
# unit: µM | format: bare number

GET /values?readout=TGI&item= `CC(C)(CN1CCOCC1)C(=O)/C=C/c1ccc(/C=C/C(=O)C(C)(C)CN2CCOCC2)cc1`
2.98

So what does the record say about TGI for CCCCNCCC(O)c1cc2ccc(C(F)(F)F)cc2c2cc(C(F)(F)F)ccc12 (centres undefined) ?
3.35

Which value of TGI has been reported for `O=c1cc(-c2ccccc2)oc2ccc(OC/C(=N/O)c3ccc(F)cc3)cc12` in the records?
22.8

Record request: TGI value, item `Cc1cc(C)nc(NS(=O)(=O)c2ccc(Nc3c4ccccc4nc4c(C(=O)Nc5ccc(S(=O)(=O)Nc6cc(C)on6)cc5)ccc(Cl)c34)cc2)n1`
80.1
